- target under test: T1, purified mTfR1 mutant M1 (AGS) (mouse, UniProt Q62351 89-763)
- T1 construct: also called N253A
- T1 sequence (Q62351 other isoform, or with tags, fused parts or gaps mutant): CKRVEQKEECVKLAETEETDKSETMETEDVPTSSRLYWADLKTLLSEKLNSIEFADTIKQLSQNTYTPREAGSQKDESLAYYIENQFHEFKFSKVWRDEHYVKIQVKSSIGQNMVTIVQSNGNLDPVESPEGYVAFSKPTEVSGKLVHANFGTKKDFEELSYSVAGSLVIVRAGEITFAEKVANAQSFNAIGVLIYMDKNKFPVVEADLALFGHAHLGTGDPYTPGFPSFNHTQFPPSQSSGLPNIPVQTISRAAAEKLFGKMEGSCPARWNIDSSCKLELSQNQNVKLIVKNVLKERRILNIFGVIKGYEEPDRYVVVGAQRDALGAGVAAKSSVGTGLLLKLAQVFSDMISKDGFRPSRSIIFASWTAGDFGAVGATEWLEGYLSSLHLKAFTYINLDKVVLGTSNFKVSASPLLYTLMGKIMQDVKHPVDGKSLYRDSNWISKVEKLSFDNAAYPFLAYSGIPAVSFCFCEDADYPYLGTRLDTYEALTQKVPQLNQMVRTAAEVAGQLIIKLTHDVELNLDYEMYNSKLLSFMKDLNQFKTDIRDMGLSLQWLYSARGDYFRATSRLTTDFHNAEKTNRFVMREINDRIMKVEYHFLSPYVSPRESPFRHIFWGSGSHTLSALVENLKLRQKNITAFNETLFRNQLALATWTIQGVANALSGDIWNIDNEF
- experimental protocol: ELISA, coated purified mTfR-1
Entries and their EC50 values follow.
Enter your answer as a number in nM; do not include the unit.

Recorded EC50, per entry:
8D3 antibody (anti-mouse TfR-1 control; 8D3-hFc formatted antibody) (antibody, V domains shown) VH: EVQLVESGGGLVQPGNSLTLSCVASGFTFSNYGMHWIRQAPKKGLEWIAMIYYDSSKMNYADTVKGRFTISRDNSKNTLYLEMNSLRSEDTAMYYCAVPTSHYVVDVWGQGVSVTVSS VL: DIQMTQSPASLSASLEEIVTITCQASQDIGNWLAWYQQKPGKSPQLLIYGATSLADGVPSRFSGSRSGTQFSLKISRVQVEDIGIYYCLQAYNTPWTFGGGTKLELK
0.35
Clone H variant 1 VNAR-hFc (Fc fusion, not shown: a dimerising Fc or GST, also called clone H var) ARVDQTPQTITKETGESLTINCVLRDSNCELSSTYWYRKKSGSTNEESISKGGRYVETVNSGSKSFSLRINDLVVEDSGTYRCNVVQWPSSSNGRYWCDVYGGGTAVTVNA
1.4
Clone H VNAR-hFc fusion (Fc fusion, not shown: a dimerising Fc or GST, bivalent VNAR-Fc) ARVDQTPQTITKETGESLTINCVLRDSNCELSSTYWYRKKSGSTNEESISKGGRYVETVNSGSKSFSLRINDLVVEDSGTYRCNVQQFPSSSNGRYWCDVYGGGTAVTVNA
5.7

Continue with the binder presented below.
Query :: Supply recorded EC50 for Clone H variant 10 VNAR-hFc (Fc fusion, not shown: a dimerising Fc or GST, also called clone H var; 10) ARVDQTPQTITKETGESLTINCVLRDSNCELSSTYWYRKKSGSTNEESISKGGRYVETVNSGSKSFSLRINDLVVEDSGTYRCNVQQFPSWFNGRYWCDVYGGGTAVTVNA here.
Result :: 3.3
